- test system: T1, murine IL-17A (murine, UniProt Q62386 26-158, limits assumed)
- T1 construct: Antigen of the murine IL-17A crossreactivity ELISA; construct not described; also called mouse IL-17A
- T1 sequence (looked up): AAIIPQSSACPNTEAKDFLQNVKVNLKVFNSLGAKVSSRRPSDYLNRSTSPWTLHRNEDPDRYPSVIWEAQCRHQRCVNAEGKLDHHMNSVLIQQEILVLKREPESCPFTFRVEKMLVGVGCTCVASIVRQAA
- test protocol: murine IL-17A crossreactivity ELISA
parameter: binding result

1. 24F11E4 (antibody, mouse IgG1, V domains shown, amino acids 1-19 are stated as the leader; also called A5) VH: QVQLQQPGAELVMPGASVRLSCKASGYTFTNYWIHWVKQRPGQGLEWIGEIDPSDTFTNYSPKFKGKATLTVDKSSSTAYMQLTGLTSEDSAVYFCARSGIYYDYYEDYWGQGTTLTVSS VL: DVVMTQTPLSLPVSLGDQVSISCRSSQILLHSNGNTYLHWYLQKPGQSPKLLIYKVSNRFSGVPDRFSGSGSGTDFTLKISRVEADDLGVYFCSQSVHVPTFGGGTKLEIK | no binding
2. 22E2G4 (antibody, mouse IgG1, V domains shown, amino acids 1-19 are stated as the leader; also called A3) VH: QVQLQQPGAELVMPGTSVRLSCKASGYTFTSYWMHWVKQRPGQGLEWIGEIDPSDTYTNYNPKFKGKATLTVDKSSSTAYMQFTSLTSEDSAVYYCARSGIYYDYYEDYWGQGTTLTVSS VL: DVVMTQTPLSLPVSLGDQASISCRSSQILLHSNGNTYLHWYLQKPGQSPKLLIYKVSNRFSGVPDRFSGSGSGTDFTLKISRVEAEDLGVYFCSQSVHVPTFGGGTKLEIK | no binding
